Here the recorded Relative Lipase Enzyme Activity is given for each entry.
System: lipase
experiment_notes: Lipase activity retention in detergent use solution (4000 ppm, 5 GPG water; p-nitrophenyl valerate, TRIS buffer pH 8.0)
Assay type: biochemical
assay_conditions: base formula, phosphonate 0.6 wt-%, use solution at 120º F., time 120 min
Protocol: The enzyme […] collected up to 4 hours, after a use solution was generated from the detergent composition. During the tests, the samples at different time points were collected and immediately frozen in an acetone/dry ice bath and stored in −80° C. before the activity of the enzyme was evaluated. […] Enzyme activity under presoak or manual warewash conditions was traced quantitatively using a standard protease assay. […]
endpoint_label: Relative Lipase Enzyme Activity

[[record]]
molecule = "CC(O)(P(=O)(O)O)P(=O)(O)O"
recorded_measurement = "14.72%"

[[record]]
molecule = "O=C(O)CCC(CC(=O)O)(C(=O)O)P(=O)(O)O (stereo not shown)"
recorded_measurement = "12.11%"

[[record]]
molecule = "NCP(=O)(O)O"
recorded_measurement = "15.84%"

[[record]]
molecule = "O=P(O)(O)CN(CP(=O)(O)O)CP(=O)(O)O"
recorded_measurement = "42.20%"


* * *

Tested on: lipase
experiment_notes: Lipase activity retention in detergent use solution (4000 ppm, 5 GPG water; p-nitrophenyl valerate, TRIS buffer pH 8.0)
Assay type: biochemical
assay_conditions: base formula, phosphonate 0.6 wt-%, use solution at 120º F., time 150 min
endpoint_label: Relative Lipase Enzyme Activity (%)

[[record]]
compound = "CC(O)(P(=O)(O)O)P(=O)(O)O"
endpoint_label = "Relative Lipase Enzyme Activity"
recorded_measurement = 12.63

[[record]]
compound = "NCP(=O)(O)O"
endpoint_label = "Relative Lipase Enzyme Activity"
recorded_measurement = 15.01

[[record]]
compound = "O=C(O)CCC(CC(=O)O)(C(=O)O)P(=O)(O)O (stereo not shown)"
endpoint_label = "Relative Lipase Enzyme Activity"
recorded_measurement = 9.68

[[record]]
compound = "O=P(O)(O)CN(CP(=O)(O)O)CP(=O)(O)O"
endpoint_label = "Relative Lipase Enzyme Activity"
recorded_measurement = 37.91


* * *

Here the recorded Relative Amylase Enzyme Activity is given for each entry.
Test system: amylase
experiment_notes: Amylase activity retention in detergent use solution (4000 ppm, 5 GPG water; ethylidene substrate EPS, HEPES buffer pH 8.0)
Format: biochemical
assay_conditions: base formula, phosphonate 0.3 wt-%, use solution at 120° F., time 5 min
Method: The enzyme activities in the detergents with different phosphonate levels were tested at 4000 ppm in 5 grains per gallon (GPG) water at 120° F. with various time points collected up to 4 hours, after a use solution was generated from the detergent composition. During the tests, the samples at different time points were collected and immediately frozen in an acetone/dry ice bath and stored in −80° C. before the activity of the enzyme was evaluated. […]
endpoint_label: Relative Amylase Enzyme Activity

[[record]]
compound = "NCP(=O)(O)O"
recorded_measurement = "100.00%"

[[record]]
compound = "O=P(O)(O)CN(CP(=O)(O)O)CP(=O)(O)O"
recorded_measurement = "89.47%"

[[record]]
compound = "O=C(O)CCC(CC(=O)O)(C(=O)O)P(=O)(O)O (stereo not shown)"
recorded_measurement = "96.90%"

[[record]]
compound = "CC(O)(P(=O)(O)O)P(=O)(O)O"
recorded_measurement = "81.99%"


* * *

System: amylase
experiment_notes: Amylase activity retention in detergent use solution (4000 ppm, 5 GPG water; ethylidene substrate EPS, HEPES buffer pH 8.0)
Type: biochemical
assay_conditions: base formula, phosphonate at 0.1% elemental phosphorus level, use solution at 120º F., time 60 min
Here the recorded Relative Amylase Enzyme Activity is given for each entry.
endpoint_label: Relative Amylase Enzyme Activity (%)

[[record]]
compound = "O=C(O)CCC(CC(=O)O)(C(=O)O)P(=O)(O)O (stereo not shown) [PBTC, Phosphonebutane tricarboxylic acid]"
recorded_measurement = 86.05

[[record]]
compound = "O=P(O)(O)CN(CP(=O)(O)O)CP(=O)(O)O [ATMP, Aminotri (methylene phosphonic acid)]"
recorded_measurement = 106.09

[[record]]
compound = "CC(O)(P(=O)(O)O)P(=O)(O)O [HEDP]"
recorded_measurement = 83.84

[[record]]
compound = "NCP(=O)(O)O [AMPA, Aminomethyl phosphonic acid]"
recorded_measurement = 92.23


* * *

Tested on: lipase
experiment_notes: Lipase activity retention in detergent use solution (4000 ppm, 5 GPG water; p-nitrophenyl valerate, TRIS buffer pH 8.0)
Assay type: biochemical
assay_conditions: base formula, phosphonate at 0.1% elemental phosphorus, at 120º F. or at room temperature (as titled), time 40 min
endpoint_label: Relative Lipase Enzyme Activity (%)

[[record]]
compound = "O=C(O)CCC(CC(=O)O)(C(=O)O)P(=O)(O)O (stereo not shown)"
recorded_measurement = 25.32

[[record]]
compound = "O=P(O)(O)CN(CP(=O)(O)O)CP(=O)(O)O"
recorded_measurement = 45.84

[[record]]
compound = "CC(O)(P(=O)(O)O)P(=O)(O)O"
recorded_measurement = 25.69

[[record]]
compound = "NCP(=O)(O)O"
recorded_measurement = 53.26


* * *

System: amylase
experiment_notes: Amylase activity retention in detergent use solution (4000 ppm, 5 GPG water; ethylidene substrate EPS, HEPES buffer pH 8.0)
Format: biochemical
assay_conditions: base formula, phosphonate 0.6 wt-%, use solution at 120º F., time 60 min
Here the recorded Relative Amylase Enzyme Activity is given for each entry.
endpoint_label: Relative Amylase Enzyme Activity

[[record]]
molecule = "CC(O)(P(=O)(O)O)P(=O)(O)O"
endpoint_label = "Relative Amylase Enzyme Activity"
recorded_measurement = "97.28%"

[[record]]
molecule = "O=P(O)(O)CN(CP(=O)(O)O)CP(=O)(O)O"
endpoint_label = "Relative Amylase Enzyme Activity"
recorded_measurement = "91.13%"

[[record]]
molecule = "O=C(O)CCC(CC(=O)O)(C(=O)O)P(=O)(O)O (stereo not shown)"
endpoint_label = "Relative Amylase Enzyme Activity"
recorded_measurement = "79.10%"

[[record]]
molecule = "NCP(=O)(O)O"
endpoint_label = "Relative Amylase Enzyme Activity"
recorded_measurement = "86.14%"


* * *

Test system: protease
experiment_notes: Protease activity retention in detergent use solution (4000 ppm, 5 GPG water; peptidyl substrate, glycine buffer pH 9.0)
Format: biochemical
assay_conditions: base formula, phosphonate 0.6 wt-%, use solution at 120° F., time 240 min
Here the recorded Relative Protease Enzyme Activity is given for each entry.
endpoint_label: Relative Protease Enzyme Activity (%)

[[record]]
compound = "CC(O)(P(=O)(O)O)P(=O)(O)O"
endpoint_label = "Relative Protease Enzyme Activity"
scale_unit = "%"
recorded_measurement = 0.45

[[record]]
compound = "NCP(=O)(O)O"
endpoint_label = "Relative Protease Enzyme Activity"
scale_unit = "%"
recorded_measurement = 40.00

[[record]]
compound = "O=P(O)(O)CN(CP(=O)(O)O)CP(=O)(O)O"
endpoint_label = "Relative Protease Enzyme Activity"
scale_unit = "%"
recorded_measurement = 82.33

[[record]]
compound = "O=C(O)CCC(CC(=O)O)(C(=O)O)P(=O)(O)O (stereo not shown)"
endpoint_label = "Relative Protease Enzyme Activity"
scale_unit = "%"
recorded_measurement = 0.39


* * *

Tested on: amylase
experiment_notes: Amylase activity retention in detergent use solution (4000 ppm, 5 GPG water; ethylidene substrate EPS, HEPES buffer pH 8.0)
Assay type: biochemical
assay_conditions: base formula, phosphonate at 0.1% elemental phosphorus level, use solution at 120º F., time 40 min
Here the recorded Relative Amylase Enzyme Activity is given for each entry.
endpoint_label: Relative Amylase Enzyme Activity (%)

[[record]]
compound = "O=C(O)CCC(CC(=O)O)(C(=O)O)P(=O)(O)O (stereo not shown)"
scale_unit = "%"
recorded_measurement = 90.60

[[record]]
compound = "O=P(O)(O)CN(CP(=O)(O)O)CP(=O)(O)O"
scale_unit = "%"
recorded_measurement = 100.35

[[record]]
compound = "NCP(=O)(O)O"
scale_unit = "%"
recorded_measurement = 92.18

[[record]]
compound = "CC(O)(P(=O)(O)O)P(=O)(O)O"
scale_unit = "%"
recorded_measurement = 81.48


* * *

System: amylase
experiment_notes: Amylase activity retention in detergent use solution (4000 ppm, 5 GPG water; ethylidene substrate EPS, HEPES buffer pH 8.0)
Format: biochemical
assay_conditions: base formula, phosphonate 0.3 wt-%, use solution at 120° F., time 40 min
Here the recorded Relative Amylase Enzyme Activity is given for each entry.
endpoint_label: Relative Amylase Enzyme Activity

[[record]]
compound = "NCP(=O)(O)O [AMPA, Aminomethyl phosphonic acid]"
recorded_measurement = "80.17%"

[[record]]
compound = "O=C(O)CCC(CC(=O)O)(C(=O)O)P(=O)(O)O (stereo not shown) [PBTC, Phosphonebutane tricarboxylic acid]"
recorded_measurement = "83.68%"

[[record]]
compound = "CC(O)(P(=O)(O)O)P(=O)(O)O [HEDP]"
recorded_measurement = "84.92%"

[[record]]
compound = "O=P(O)(O)CN(CP(=O)(O)O)CP(=O)(O)O [ATMP, Aminotri (methylene phosphonic acid)]"
recorded_measurement = "90.79%"


This collection of values is drawn from patent US11807835B2.
